- Tested on: PPC-1 cells
- assay_summary: PPC-1 cell viability (MTT) with or without CH-11 anti-FAS antibody
- Type: cell-based
- test_context: Homo sapiens, PPC-1, read-out: EC50 as a FAS-sensitizer in PPC1 cells
assay_metric: EC50 (µM)
Only the number, expressed in µM, is required.

Ask: For the compound Cn1c(=N)n(CC(=O)c2cc(C(C)(C)C)c(O)c(C(C)(C)C)c2)c2ccccc21 , what EC50 is on record?
Result: 25.7
